- test system: norepinephrine transporter (UniProt Q9WTR4)
- assay summary: Inhibition of [3H]nisoxetine radioligand binding at the norepinephrine transporter
- conditions: read-out: NEN IC50 for inhibition of radioligand binding; NEN=[3H] nisoxetine
Structures can show the parent of a compound that is named as a salt.
experimental endpoint: pIC50
Notebook: values listed as pIC50 are -log10 of the concentration (mol/L).

Please review the following examples before continuing.
compound: CCc1ccc(C2CC3CCC(N3)C2C(=O)OC)cc1 (centres unmarked) [RTI-4229-173]
pIC50: 6.91
--
compound: COC(=O)C1C2CCC(C[C@H]1c1ccccc1)N2C (some centres unmarked) [RTI-4229-140]
pIC50: 5.68
--
compound: CN1C2CCC1C(c1nnc(-c3ccccc3)s1)C(c1ccc(Cl)cc1)C2 (centres unmarked) [RTI-4229-200, Hydrochloride]
pIC50: 5.38

Query :: Check the records and state pIC50 for C=C(C)C1C(c2ccc(Cl)cc2)CC2CCC1N2C (centres unmarked) [RTI-4229-230]
Result :: 6.85

Query :: Please look at this compound and report its pIC50: COC(=O)CCN1C2CCC1C(C(=O)OC)C(c1ccc(Cl)cc1)C2 (centres unmarked) [RTI-4229-252]
Result :: 6.90
